Molecular target: ERα protein (HiBiT-tagged) in ESR1_HiBiT KI MCF7 cells (Homo sapiens)
Sequence (P03372 whole entry): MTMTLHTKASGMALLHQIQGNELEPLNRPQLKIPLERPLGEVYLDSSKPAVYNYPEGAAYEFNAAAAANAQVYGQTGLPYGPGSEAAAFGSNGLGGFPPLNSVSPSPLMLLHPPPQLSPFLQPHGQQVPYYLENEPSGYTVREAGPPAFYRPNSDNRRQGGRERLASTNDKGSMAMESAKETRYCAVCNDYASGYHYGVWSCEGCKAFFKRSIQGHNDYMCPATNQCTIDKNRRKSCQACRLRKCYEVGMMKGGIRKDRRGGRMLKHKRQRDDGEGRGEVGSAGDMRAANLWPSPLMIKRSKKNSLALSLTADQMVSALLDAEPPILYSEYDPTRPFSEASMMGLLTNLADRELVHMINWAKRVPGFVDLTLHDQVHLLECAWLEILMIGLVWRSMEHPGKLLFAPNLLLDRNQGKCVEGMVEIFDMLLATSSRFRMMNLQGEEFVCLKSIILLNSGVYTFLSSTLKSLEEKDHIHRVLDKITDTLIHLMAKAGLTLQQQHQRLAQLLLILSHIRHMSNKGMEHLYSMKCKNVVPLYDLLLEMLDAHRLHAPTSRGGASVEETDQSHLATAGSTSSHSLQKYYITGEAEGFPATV
Assay: Nano Glo HiBiT Lytic Degradation Assay
Type: cell-based
Conditions: 6 hours with compound, 14-point dose response 1:3, bell-shape curve fit, half-maximal effect of first Hill model, read-out: MCF7 ESR1 HiBiT - (DC50)
Method: Selected compounds of the present disclosure were tested in a Nano Glo HiBiT Lytic Degradation Assay to measure the level of ERα protein degradation in MCF7 cells. Cell culture: ESR1_HiBiT KI MCF7 cells were maintained in growth media without antibiotics. […] Cell seeding: Cells were counted using a Vi-Cell and seeded in a 384-well flat-bottom microplate (cell culture-treated) at 4000 cells/well in 25 μL of growth medium using a BioTek MultiFlo Multimode Dispenser. […]
Assign labels as follows, please: Yes for DC50 below 0.6 nM; No for DC50 equal to or exceeding 0.6 nM.

1) O=C1CC[C@H](N2Cc3cc(N4CCN(C[C@H]5CC[C@H](c6ccc([C@@H]7c8ccc(O)cc8CC[C@@H]7c7ccccc7)cc6)CC5)CC4)ccc3C2=O)C(=O)N1 [II-52] : Yes
2) O=C1CC[C@H](N2Cc3cc(N4CCN(CC5CCN(c6ccc([C@@H]7c8ccc(O)cc8CC[C@@H]7c7ccccc7)cc6F)CC5)CC4)ccc3C2=O)C(=O)N1 [II-82] : No
3) O=C1CC[C@H](N2Cc3cc(N4CCN(CC5CCN(c6ccc([C@H]7c8ccc(O)cc8CC[C@H]7C7=CCCCC7)cc6)CC5)CC4)ccc3C2=O)C(=O)N1 (single isomer, unassigned) [Compound I-416] : Yes

Threshold test, DC50 < 0.6 nM: O=C1CC[C@H](N2Cc3cc(N4CCN(CC5CCN(c6ccc([C@H]7c8ccc(O)cc8C(F)(F)C[C@H]7CC7CCCC7)cc6)CC5)CC4)ccc3C2=O)C(=O)N1 [Compound I-229]
No

Again, but for COc1cc(N2CCC(CN3CCN(c4ccc5c(c4)CN([C@H]4CCC(=O)NC4=O)C5=O)CC3)CC2)ccc1[C@@H]1c2ccc(O)cc2CC[C@@H]1c1ccccc1 [Compound I-144]
Yes

Again, but for COc1cc(N2CCC(CN3CCN(c4ccc5c(c4)CN([C@H]4CCC(=O)NC4=O)C5=O)CC3)CC2)c(-c2ccccc2)cc1[C@H]1CCC(F)(F)c2cc(O)ccc21 [Compound I-406]
No

Again, but for O=C1CC[C@H](N2Cc3cc(N4CCN(CC5CCN(c6ccc([C@@H]7CCCc8cc(O)ccc87)cc6)CC5)CC4)ccc3C2=O)C(=O)N1 (single isomer, unassigned) [Compound I-103]
No

Again, but for C[C@H]1O[C@H](c2ccccc2)[C@H](c2ccc(N3CCC(CN4CCN(c5ccc6c(c5)CN([C@H]5CCC(=O)NC5=O)C6=O)CC4)CC3)cc2)c2ccc(O)cc21 (single isomer, unassigned) [Compound I-367]
Yes

Again, but for O=C1CCC(c2ccc(N3CCN(CCC4CCN(c5ccc([C@H]6c7ccc(O)cc7CC[C@H]6c6ccccc6)cc5)CC4)CC3)cc2)C(=O)N1 (single isomer, unassigned) [Compound I-42]
No

Again, but for O=C1CCC(c2ccc(N3CC[C@@]4(CCN(CC5CCN(c6ccc([C@@H]7c8ccc(O)cc8CC[C@@H]7c7ccccc7)cc6)CC5)C4)C3)cc2)C(=O)N1 (single isomer, unassigned) [Compound I-280]
No

Again, but for C[C@@H]1OC2(CCCCC2)[C@@H](c2ccc(N3CCC(CN4CCN(c5ccc6c(c5)CN([C@H]5CCC(=O)NC5=O)C6=O)CC4)CC3)cc2)c2ccc(O)cc21 (single isomer, unassigned) [Compound I-270]
No

Again, but for O=C1CC[C@H](N2Cc3cc(N4CCN(CC5CCN(c6ccc([C@H]7c8ccc(O)cc8CO[C@H]7C7CC7)cc6)CC5)CC4)ccc3C2=O)C(=O)N1 (single isomer, unassigned) [Compound I-243]
No

Again, but for Cc1cc(F)c([C@H]2CCc3cc(O)ccc3[C@H]2c2ccc(N3CCC(CN4CCN(c5ccc6c(c5)CN([C@H]5CCC(=O)NC5=O)C6=O)CC4)CC3)cc2)cc1F [II-75]
No

Again, but for Cc1ccc(F)cc1[C@H]1OCc2cc(O)ccc2[C@H]1c1ccc(N2CCC(CN3CCN(c4ccc5c(c4)CN([C@H]4CCC(=O)NC4=O)C5=O)CC3)CC2)cc1 (single isomer, unassigned) [Compound I-357]
Yes
